Data provenance is ChEMBL document CHEMBL3431459.

Experiment: SUPPLEMENTARY: Lipophilicity (log D) Determination by high-throughput shake-flask
Format: physicochemical
Settings: octanol/water
ASSAY ENDPOINT: logD

Per the records, this compound ( `CCCN(c1cc(C(=O)Nc2ccc(CC(=O)O)cc2)cc2c1OCO2)S(=O)(=O)c1cc(Cl)ccc1OC` ) has logD equal to 0.87

Per the records, this compound ( `COc1ccc(Cl)cc1S(=O)(=O)N1CCc2ccc(C(=O)Nc3ccc(CC(=O)O)cc3)cc21` ) has logD equal to 0.33

Per the records, this compound ( `COc1ccc(Cl)cc1S(=O)(=O)N1COc2c(C)cc(C(=O)Nc3ccc(CC(=O)O)cc3)cc21` ) has logD equal to 0.65

Per the records, this compound ( `COc1ccc(C)cc1S(=O)(=O)N1CCc2ccc(C(=O)Nc3ccc(CC(=O)O)cc3)cc21` ) has logD equal to 0.11

Per the records, this compound ( `CCN1C(=O)CC(C)(C)c2ccc(-c3nc([C@H]4CCCCN4C(=O)COc4ccccc4)no3)cc21` ) has logD equal to > 3

Per the records, this compound ( `Cc1cc(-c2nc([C@H]3CCCCN3C(=O)COc3ccccc3)no2)n(C)n1` ) has logD equal to 3.13

Per the records, this compound ( `COCCN(C)C(=O)c1cncc(-c2noc([C@H]3CCCCN3C(=O)COc3ccccc3)n2)c1` ) has logD equal to 1.83

Per the records, this compound ( `O=C1COc2ccc(-c3n[nH]c([C@H]4CCCCN4C(=O)COc4ccccc4)n3)cc2N1` ) has logD equal to 2.57

Per the records, this compound ( `O=C(COc1ccccc1)N1CCCC[C@@H]1c1noc(C2CCCC2)n1` ) has logD equal to 3.08
